Target: Penicillin-binding protein 1A (Streptococcus pneumoniae serotype 4 (strain ATCC BAA-334 / TIGR4), UniProt Q04707)
Sequence (Q04707 whole entry): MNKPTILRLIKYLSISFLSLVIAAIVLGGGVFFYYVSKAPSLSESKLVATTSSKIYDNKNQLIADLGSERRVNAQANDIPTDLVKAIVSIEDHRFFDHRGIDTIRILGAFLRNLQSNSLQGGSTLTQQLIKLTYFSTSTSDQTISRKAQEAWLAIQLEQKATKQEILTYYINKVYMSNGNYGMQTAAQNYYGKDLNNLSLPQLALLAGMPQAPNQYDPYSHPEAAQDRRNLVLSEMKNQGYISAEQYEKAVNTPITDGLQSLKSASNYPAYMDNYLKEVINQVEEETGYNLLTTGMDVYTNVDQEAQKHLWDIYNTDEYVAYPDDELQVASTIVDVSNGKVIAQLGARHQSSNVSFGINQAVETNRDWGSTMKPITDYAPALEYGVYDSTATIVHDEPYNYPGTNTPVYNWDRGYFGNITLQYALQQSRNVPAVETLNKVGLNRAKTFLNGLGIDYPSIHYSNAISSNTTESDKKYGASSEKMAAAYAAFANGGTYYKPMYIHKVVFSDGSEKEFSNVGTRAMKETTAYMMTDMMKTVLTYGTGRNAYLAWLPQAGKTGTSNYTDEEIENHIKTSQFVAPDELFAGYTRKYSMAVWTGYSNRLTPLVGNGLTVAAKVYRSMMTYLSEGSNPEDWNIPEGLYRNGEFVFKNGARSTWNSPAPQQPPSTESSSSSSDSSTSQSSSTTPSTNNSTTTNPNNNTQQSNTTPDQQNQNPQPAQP
Assay: Displacement of Biocillin FL from Streptococcus pneumoniae 3009 PBP1A
Quick reference for IC50 among some compounds
// note: answer is a bare numeric in nM

Here's what some known entries look like.
COMPOUND: CC1(C)S[C@@H]2[C@H](NC(=O)Cc3ccccc3)C(=O)N2[C@H]1C(=O)O [PENICILLIN G]
IC50 / nM: 26.9

COMPOUND: CC1(C)S[C@@H]2[C@H](NC(=O)[C@H](N)c3ccc(O)cc3)C(=O)N2[C@H]1C(=O)O [AMOXICILLIN]
IC50 / nM: 246

COMPOUND: C[C@@H](O)[C@H]1C(=O)N2C(C(=O)O)=C([C@H]3CCCO3)S[C@H]12 [FAROPENEM]
IC50 / nM: 35

## Input For the compound shown here, CO/N=C(\C(=O)N[C@@H]1C(=O)N2C(C(=O)O)=C(COC(N)=O)CS[C@H]12)c1ccco1 [CEFUROXIME] , give the reported IC50.
## Output 23.6

## Input // query: C[C@@H](O)[C@H]1C(=O)N2C(C(=O)O)=C(SCCNC=N)C[C@H]12 [IMIPENEM ANHYDROUS]
## Output 86.9

Ref: ChEMBL document CHEMBL1649182
